- test system: human ether-à-go-go-related gene (hERG) potassium channel (human);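 note: peak tail current of the secondary pulse compared with the same well before compound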
- protocol notes: primary screen, population patch clamp on CHO cells stably expressing hERG; higher = less effect of the substance
- Procedure: Briefly, Chinese hamster ovary (CHO) cells stably expressing the hERG channel were dislodged from tissue culture flasks and dispensed into PPC plates. […] During the recording, background leak currents were estimated by a 100 ms step to -80 mV from an initial holding potential of -70 mV and subtracted from the subsequent current measurement. The campaign was conducted in two phases using slight differences in recording protocol. […]
About 14,000 (4.5%) of roughly 310,000 compounds showed an effect of 50% or more. Effects have a minus sign here. The entries come from a sample that favours strong results as a whole.
measure: hERG current change (%, negative = inhibition) at 10uM (%)
Write the value in % as a bare number.

- compound: "C=C(c1ccccc1)P(=O)(O)O"
  experimental result: 17.8
- compound: "N#CC1CCCc2c1[nH]c1ccc([N+](=O)[O-])cc21 (stereo not shown)"
  experimental result: 12.5
- compound: "COc1cc2c(cc1NC(=O)CCC(=O)O)oc1ccccc12"
  experimental result: 18.5
- compound: "Cc1ccc(S(=O)(=O)NC2(C(F)(F)F)NC(=O)N(c3ccc(F)cc3)C2=O)cc1 (stereo not shown)"
  experimental result: 9.68
- compound: "COc1ccc(C(=O)Nc2ccccc2NC(=O)c2ccco2)c(OC)c1"
  experimental result: -21.9
- compound: "COc1ccccc1NC(=O)c1cc(Cl)ccc1NC(=O)c1ccco1"
  experimental result: -1.81

input: Look up hERG current change (%, negative = inhibition) at 10uM for this compound: COc1ccccc1NC(=O)c1ccccc1NC(=O)c1cc(Cl)ccc1NC(=O)c1ccco1
output: 2.97

input: Look up hERG current change (%, negative = inhibition) at 10uM for this compound: Cc1cccc(CN2C3=NCCCN3c3ccccc32)c1.Cl
output: -57.4

input: Look up hERG current change (%, negative = inhibition) at 10uM for this compound: Cc1ccccc1CC1(CO)CCCN(C(=O)c2ccccc2Cl)C1 (stereo not shown)
output: -81.5

input: Look up hERG current change (%, negative = inhibition) at 10uM for this compound: Cc1ccc(C(=O)N2CCN(C(=O)N3CCOCC3)CC2)cc1
output: -5.64

input: Look up hERG current change (%, negative = inhibition) at 10uM for this compound: CCOc1ccccc1C(=O)Nc1cc(C)ccc1NC(=O)c1ccco1
output: -75.3

input: Look up hERG current change (%, negative = inhibition) at 10uM for this compound: COc1ccccc1C(=O)Nc1cc(C)ccc1NC(=O)c1ccco1
output: -44.4

input: Look up hERG current change (%, negative = inhibition) at 10uM for this compound: O=C(Nc1ccc(NC(=O)c2ccc3c(c2)OCO3)cc1)c1cccc(Cl)c1
output: 24.9

input: Look up hERG current change (%, negative = inhibition) at 10uM for this compound: CCCNC(=O)c1ccc(N2CCC3(CC2)CC(c2ccccc2)=NO3)c([N+](=O)[O-])c1
output: -53

input: Look up hERG current change (%, negative = inhibition) at 10uM for this compound: CC(Oc1cccc2c1OC(C)(C)C2)C(=O)O (stereo not shown)
output: -5.47

input: Look up hERG current change (%, negative = inhibition) at 10uM for this compound: COc1ccc(NC(=O)c2cc(Cl)ccc2NC(=O)c2ccco2)c(OC)c1
output: -85.2

input: Look up hERG current change (%, negative = inhibition) at 10uM for this compound: O=C(O)c1cccc(Oc2ncnc3sc4c(c23)CCCC4)c1
output: 34.5

====

- test system: human ether-à-go-go-related gene (hERG) potassium channel (human, UniProt Q12809);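 note: peak tail current of the secondary pulse compared with the same well before compound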
- Sequence (Q12809 whole entry, looked up): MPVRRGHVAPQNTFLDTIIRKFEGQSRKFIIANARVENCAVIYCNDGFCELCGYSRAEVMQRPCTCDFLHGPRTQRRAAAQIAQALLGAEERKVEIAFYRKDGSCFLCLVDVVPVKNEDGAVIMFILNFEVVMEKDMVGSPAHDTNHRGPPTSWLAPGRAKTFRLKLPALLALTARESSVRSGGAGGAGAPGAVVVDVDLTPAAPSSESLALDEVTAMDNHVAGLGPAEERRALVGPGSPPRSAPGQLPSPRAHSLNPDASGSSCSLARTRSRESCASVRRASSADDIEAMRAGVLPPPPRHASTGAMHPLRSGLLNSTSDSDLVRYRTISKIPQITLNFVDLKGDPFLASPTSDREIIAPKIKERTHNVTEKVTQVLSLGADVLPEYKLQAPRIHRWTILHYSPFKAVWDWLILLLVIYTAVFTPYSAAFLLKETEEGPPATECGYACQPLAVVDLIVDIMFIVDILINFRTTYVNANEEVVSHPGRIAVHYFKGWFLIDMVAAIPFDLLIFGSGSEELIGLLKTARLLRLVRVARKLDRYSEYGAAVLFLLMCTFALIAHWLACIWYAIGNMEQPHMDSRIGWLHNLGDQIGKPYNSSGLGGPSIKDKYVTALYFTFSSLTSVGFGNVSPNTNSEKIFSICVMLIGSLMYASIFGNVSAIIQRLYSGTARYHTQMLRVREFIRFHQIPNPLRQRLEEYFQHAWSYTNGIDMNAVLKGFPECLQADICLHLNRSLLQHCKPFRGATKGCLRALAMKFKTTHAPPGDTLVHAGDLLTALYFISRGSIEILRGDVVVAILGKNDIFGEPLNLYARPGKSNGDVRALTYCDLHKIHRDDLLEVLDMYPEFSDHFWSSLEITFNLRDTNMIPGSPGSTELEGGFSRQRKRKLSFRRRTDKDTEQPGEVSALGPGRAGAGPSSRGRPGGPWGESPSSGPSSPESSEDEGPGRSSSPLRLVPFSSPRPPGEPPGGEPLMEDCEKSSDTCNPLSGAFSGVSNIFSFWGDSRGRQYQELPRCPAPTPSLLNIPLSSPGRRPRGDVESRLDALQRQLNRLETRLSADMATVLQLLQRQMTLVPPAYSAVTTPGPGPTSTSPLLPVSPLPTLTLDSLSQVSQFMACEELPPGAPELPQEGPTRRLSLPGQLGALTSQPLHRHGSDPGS
- protocol notes: primary screen, population patch clamp on CHO cells stably expressing hERG; higher = less effect of the substance
The campaign covered roughly 310,000 compounds. About 14,000 (4.5%) showed an effect of 50% or more. The effect is printed as a negative number. The sample as a whole holds a higher share of strong results than the screen did.
measure: hERG current change (%, negative = inhibition) at 10uM (%)
Write the value in % as a bare number.

For orientation, consider the following solved cases.
- compound: "CCn1c(COc2ccc3c(c2)CCCC3)nnc1SCC(=O)Nc1ccc(C(=O)OC)cc1"
  test system: "human ether-à-go-go-related gene (hERG) potassium channel (human, UniProt Q12809)"
  experimental result: 5.43
- compound: "Cc1cc(NC(=O)CSc2nc3ccc(Cl)cc3[nH]2)no1"
  test system: "human ether-à-go-go-related gene (hERG) potassium channel (human, UniProt Q12809)"
  experimental result: 9.82
- compound: "CN1CCN(c2ccc(NC(=O)c3ccc(Br)o3)cc2)CC1"
  test system: "human ether-à-go-go-related gene (hERG) potassium channel (human, UniProt Q12809)"
  experimental result: -16.2
- compound: "O=C(Nc1ccc(N2CCN(C(=O)c3cccs3)CC2)cc1)c1ccc(Br)o1"
  test system: "human ether-à-go-go-related gene (hERG) potassium channel (human, UniProt Q12809)"
  experimental result: -75.8
- compound: "O=c1sc2ccccc2c(N2CCCC2)c1[N+](=O)[O-]"
  test system: "human ether-à-go-go-related gene (hERG) potassium channel (human, UniProt Q12809)"
  experimental result: 6.33

input: Look up hERG current change (%, negative = inhibition) at 10uM for this compound: O=[N+]([O-])c1ccc(C2CN=C(Nc3ccccc3)S2)cc1 (centres unmarked)
output: -60.2

input: Look up hERG current change (%, negative = inhibition) at 10uM for this compound: Cc1ccccc1N1CCN(Cc2nc(Cc3ccccc3F)no2)CC1
output: -3.53

input: Look up hERG current change (%, negative = inhibition) at 10uM for this compound: CCC(=O)Oc1ccc(-c2cnc3ccccc3n2)cc1
output: 13.5

input: Look up hERG current change (%, negative = inhibition) at 10uM for this compound: COC1CCN(C(=O)CC2C(=O)NCCN2CC(C)(C)C)CC1 (centres unmarked)
output: 18.5

input: Look up hERG current change (%, negative = inhibition) at 10uM for this compound: Cc1ccccc1Cn1cc(S(=O)(=O)CC(=O)N2CCCCC2)c2ccccc21
output: 7.27

input: Look up hERG current change (%, negative = inhibition) at 10uM for this compound: O=C(c1ccc2c(c1)OCO2)N1CCc2ccccc21
output: -2.34

input: Look up hERG current change (%, negative = inhibition) at 10uM for this compound: COc1ccc(S(=O)(=O)N2c3ccccc3NC(=O)CC2C)cc1 (centres unmarked)
output: 9.7

====

- test system: human ether-à-go-go-related gene (hERG) potassium channel (human, UniProt Q12809);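 note: peak tail current of the secondary pulse compared with the same well before compound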
- protocol notes: primary screen, population patch clamp on CHO cells stably expressing hERG; higher = less effect of the substance
Hit rate of the full screen: of about 310,000 compounds, about 14,000 (4.5%) showed an effect of 50% or more. Effects have a minus sign here. For the sample, strong results were picked, then their nearest neighbours and some compounds at random.
measure: hERG current change (%, negative = inhibition) at 10uM
Provide the measurement as a number trailed by its unit.

For orientation, consider the following solved cases.
- molecule: "Cc1cc(C)nc(SCc2nnc(SCC(N)=O)o2)n1"
  experimental result: "15.7%"
- molecule: "O=S(=O)(Nc1ccccn1)c1ccc(Cl)c2ccccc12"
  experimental result: "19.5%"
- molecule: "COc1ccc(C(=O)OCC(=O)Nc2sccc2C(N)=O)cc1OC"
  experimental result: "-0.284%"
- molecule: "CCN(CC)CCCNC(=O)Cn1cnc2ccc(S(=O)(=O)N3CCC(C)CC3)cc2c1=O"
  experimental result: "-0.31%"
- molecule: "CCC(=O)N/N=c1/sc2ccccc2n1C"
  experimental result: "13.9%"
- molecule: "COc1ccccc1NC(=O)c1ccc(C)c(S(=O)(=O)N2CCCCC2)c1"
  experimental result: "-8.22%"
- molecule: "O=C(Nc1ccccc1N1CCOCC1)c1cccnc1"
  experimental result: "15%"
- molecule: "Cc1ccc(/C=N/NC(=O)NN(C)c2ncc(C(F)(F)F)cc2Cl)cc1"
  experimental result: "-3.09%"

input: Look up hERG current change (%, negative = inhibition) at 10uM for this molecule: COc1ccc(-c2oc3ccc(N4CCOCC4)cc3c2C#CC2(O)CCCCC2)cc1
output: 17.3%

input: Look up hERG current change (%, negative = inhibition) at 10uM for this molecule: COc1ccc(-c2c(-c3ccc(OCC(=O)NN)cc3O)n[nH]c2C(F)(F)F)cc1
output: -5.25%

input: Look up hERG current change (%, negative = inhibition) at 10uM for this molecule: CCN(C(=O)C1CCCN1S(=O)(=O)c1ccc2c(c1)n(C)c(=O)c(=O)n2C)c1ccccc1 (centres unmarked)
output: -3.32%

input: Look up hERG current change (%, negative = inhibition) at 10uM for this molecule: CC1CCN(S(=O)(=O)c2ccc3ncn(CC(=O)N(C)Cc4ccccc4)c(=O)c3c2)CC1
output: -61.7%
